- Test system: TK-10 renal
- experiment-notes: NCI tumour cell line growth inhibition, 48 h

- molecule: "CN1CC[C@]23c4c5ccc(O)c4O[C@H]2C(O)CC[C@@]3(O)[C@H]1C5 (some centres not stated)"
  target-or-system: "TK-10 renal"
  TGI: "> 100 µM"
- molecule: "CN(C)CCCNC(=O)c1c(O)c2ccccc2[nH]c1=O"
  target-or-system: "TK-10 renal"
  TGI: "> 100 µM"
- molecule: "Cc1ccc(Cc2n[nH]c(=O)n2Nc2ccccc2)cc1"
  target-or-system: "TK-10 renal"
  TGI: "> 100 µM"
- molecule: "Fc1ccc(Oc2nc3ccc(C(F)(F)F)cc3nc2-c2ccccc2)cc1"
  target-or-system: "TK-10 renal"
  TGI: "> 100 µM"
- molecule: "Cc1cc(CC(=O)NCCO)n(CCO)c(=O)c1"
  target-or-system: "TK-10 renal"
  TGI: "> 100 µM"
- molecule: "COc1cc(C(=O)/C=C/c2ccc(OCC#N)cc2)cc(OC)c1OC"
  target-or-system: "TK-10 renal"
  TGI: "70.1 µM"
- molecule: "CN1CCN(C(=S)N(C(=O)c2ccc(Cl)cc2)c2ccccc2)CC1"
  target-or-system: "TK-10 renal"
  TGI: "> 100 µM"

---

- Tested on: CAKI-1 renal
- experiment-notes: NCI tumour cell line growth inhibition, 48 h
GI50 values, listed per item
assay-metric: GI50

- molecule: "COC12C=C/C(=C(/C(=O)OCc3cncnc3)C(=O)CCCCCCCCC3(OC)C=C/C(=C(/C(=O)OCc4cncnc4)C(=O)CCCCCCCC1)O3)O2"
  assay-metric: "GI50"
  result: "667 nM"
- molecule: "Fc1ccc(C2CC(c3cccc(Nc4ccncc4)c3)=NN2c2ccc(Cl)cc2)cc1 (centres undefined)"
  assay-metric: "GI50"
  result: "1390 nM"
- molecule: "C[C@H](NC(=O)[C@@H](C)N)[C@H](Oc1ccc2c(cnn2-c2ccc(F)cc2)c1)c1ccc2c(c1)OCCO2"
  assay-metric: "GI50"
  result: "1090 nM"
- molecule: "NS(=O)(=O)c1ccc(-n2nc(-c3ccc(Cl)cc3)cc2-c2cc(O)ccc2O)cc1"
  assay-metric: "GI50"
  result: "7900 nM"

---

- Tested on: M14 melanoma
- experiment-notes: NCI tumour cell line growth inhibition, 48 h
assay-metric: TGI

- compound: "Cc1ccc(S(=O)(=O)N2CCC(=O)c3cc(Br)ccc32)cc1"
  result: "> 67 µM"
- compound: "O=C1NCC(CSc2nc3cc(C4CCCc5c4[nH]c4ccccc54)ccc3o2)N1 (stereo not given)"
  result: "> 100 µM"
- compound: "CCOC(=O)c1nn2c(nc1=O)sc1ccc3ccccc3c12"
  result: "> 100 µM"
- compound: "CC(=O)OC/C=C/[C@H](O[Si](C)(C)C(C)(C)C)[C@@H](O)/C=C/COC(C)=O"
  result: "> 100 µM"
- compound: "Cc1nnn[n-]1.N.N.N.N.N.[Cl-].[Co+3]"
  result: "> 100 µM"

---

TGI values, listed per item
- Tested on: OVCAR-5 ovarian
- experiment-notes: NCI tumour cell line growth inhibition, 48 h

- compound: "OC(Cc1ccncc1)C(Cl)(Cl)Cl (stereo not drawn)"
  target-or-system: "OVCAR-5 ovarian"
  TGI: "> 100 µM"
- compound: "O=C1/C(=c2\\s/c(=C\\c3ccccc3)c(=O)n2-c2ccccc2)SC(=S)N1c1ccccc1"
  target-or-system: "OVCAR-5 ovarian"
  TGI: "> 100 µM"
- compound: "Cc1c[n+](=O)c2ccccc2n1[O-]"
  target-or-system: "OVCAR-5 ovarian"
  TGI: "> 100 µM"
